- System: TCF/LEF luciferase Reporter in DLD1 cells
- test_name: TCF reporter assay (DLD1 TCF/LEF luciferase reporter, Bright-Glo)
- Assay type: cell-based
- condition_summary: absolute IC50; read-out: DLD1 reporter assay Abs IC50
- Description: Those skilled in the art will appreciate that other suitable reagents may be utilized and various parameters may be adjusted. DLD1 reporter cell line was generated by using TCF/LEF luciferase Reporter Lentivirus (BPS Bioscience Catalog #79787). […] On Day 3, luciferase levels were assessed using Bright-Glo (Promega). […] When ready to read, remove plates from incubator and let sit at room temperature for 15 minutes. Typically stagger taking out plates if reading multiple plates before adding the Bright-Glo. […]
// reported IC50 for each item listed

// known answers, use as guide
CC(=O)N1CCC[C@]12CC=CCCCC1(CCCC=CCCCCCC[C@@](C)(C(=O)N[C@@H](Cc3ccccc3Cl)C(=O)N[C@@H](Cc3csc4ccccc34)C(=O)N[C@@H](CCC(N)=O)C(N)=O)NC(=O)[C@H](CC(C)C)NC(=O)[C@H](Cc3ccccc3)NC(=O)[C@H](C)NC(=O)[C@H](C)NC(=O)[C@H](CC(=O)O)NC(=O)[C@H](CC(=O)O)NC1=O)NC(=O)[C@H](CC(C)(C)C)NC(=O)[C@H](CC(=O)O)NC2=O (stereo partly drawn) [I-1095]    > 20 µM
CC(=O)N1CCC[C@]12CC=CCCCC1(CCCC=CCCCOC(=O)N3CC[C@@](C(=O)N[C@@H](Cc4ccsc4)C(=O)N[C@@H](Cc4csc5ccccc45)C(=O)N[C@@H](CCC(N)=O)C(=O)O)(C3)NC(=O)[C@H](CC(N)=O)NC(=O)[C@H](Cc3ccccc3)NC(=O)[C@H](C)NC(=O)[C@H](C)NC(=O)[C@H](CN(CC(=O)O)CC(F)(F)F)NC(=O)[C@H](CC(=O)O)NC1=O)NC(=O)[C@H](CC(C)(C)C)NC(=O)[C@H](CC(=O)O)NC2=O (stereo partly drawn) [I-1026]    > 20 µM

Exam item: Recorded IC50 of CC(=O)N1CCC[C@]12CC=CCCCC1(CCCC=CCCCOC(=O)N3CC[C@@](C(=O)N[C@@H](Cc4ccccc4Cl)C(=O)N[C@@H](Cc4csc5ccccc45)C(=O)N[C@@H](CCC(N)=O)C(N)=O)(C3)NC(=O)[C@H](CC(N)=O)NC(=O)[C@H](Cc3ccccc3)NC(=O)[C@H](CO)NC(=O)[C@H](C)NC(=O)[C@H](CN(CC(=O)O)CC(F)(F)F)NC(=O)[C@H](CC(=O)O)NC1=O)NC(=O)[C@H](CC(C)(C)C)NC(=O)[C@H](CC(=O)O)NC2=O (stereo partly drawn) [I-1004] , please.
Marked response: > 20 µM

----------
// reported pIC50 for each item listed
- study_system: beta-catenin/TCF4 engagement (Homo sapiens)
- Construct: expressed in transfected cells; host or cells: HEK293
- Sequence (P35222 1-781): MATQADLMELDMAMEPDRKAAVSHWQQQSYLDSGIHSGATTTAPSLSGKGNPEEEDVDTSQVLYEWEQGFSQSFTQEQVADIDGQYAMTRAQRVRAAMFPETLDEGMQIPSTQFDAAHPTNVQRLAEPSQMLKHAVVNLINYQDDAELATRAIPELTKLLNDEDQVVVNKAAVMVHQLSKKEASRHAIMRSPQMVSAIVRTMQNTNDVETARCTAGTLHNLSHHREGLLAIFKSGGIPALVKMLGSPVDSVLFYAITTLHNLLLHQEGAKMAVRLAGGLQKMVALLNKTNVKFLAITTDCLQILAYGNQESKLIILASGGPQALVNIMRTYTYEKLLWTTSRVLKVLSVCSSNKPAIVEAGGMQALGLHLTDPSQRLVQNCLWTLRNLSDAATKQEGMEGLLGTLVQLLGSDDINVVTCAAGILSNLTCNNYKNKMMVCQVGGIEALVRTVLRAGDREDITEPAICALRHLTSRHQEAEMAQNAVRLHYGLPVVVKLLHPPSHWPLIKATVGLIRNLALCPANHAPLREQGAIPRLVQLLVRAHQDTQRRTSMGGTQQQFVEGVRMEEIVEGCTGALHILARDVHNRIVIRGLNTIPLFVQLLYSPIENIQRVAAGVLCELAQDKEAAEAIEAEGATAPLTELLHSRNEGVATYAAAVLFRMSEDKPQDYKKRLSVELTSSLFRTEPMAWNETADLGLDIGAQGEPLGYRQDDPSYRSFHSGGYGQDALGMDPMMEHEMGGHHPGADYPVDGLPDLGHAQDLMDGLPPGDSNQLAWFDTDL
- test_name: Nano-BRET target engagement assay (B-cat-Halo & TCF4-Luc in HEK293 cells)
- Assay type: cell-based
- condition_summary: read-out: NanoBRET Abs IC50
pIC50: −log10 of the molar value.

CC(=O)N1CCC[C@]12CC=CCCCC1(CCCC=CCCCOC(=O)N3CC[C@@](C(=O)N[C@@H](Cc4ccccc4)C(=O)N[C@@H](Cc4csc5ccccc45)C(=O)N[C@@H](Cc4c[nH]cn4)C(N)=O)(C3)NC(=O)[C@H](CC(N)=O)NC(=O)[C@H](Cc3ccccc3)NC(=O)[C@H](C)NC(=O)[C@H](CCCCNC(C)C)NC(=O)[C@H](CCC(N)=O)NC(=O)[C@H](CC(=O)O)NC1=O)NC(=O)[C@H](CC1CCCCC1)NC(=O)[C@H](CC(N)=O)NC2=O (stereo partly drawn) [I-2109]    < 4.70
CC(=O)N1CCC[C@]12CC=CCCCC1(CCCC=CCCCOC(=O)N3CC[C@@](C(=O)N[C@@H](Cc4ccsc4)C(=O)N[C@@H](Cc4ccc5ccccc5c4)C(=O)N[C@@H](Cc4c[nH]cn4)C(N)=O)(C3)NC(=O)[C@H](CC(N)=O)NC(=O)[C@H](Cc3ccccc3)NC(=O)[C@H](C)NC(=O)[C@H](C)NC(=O)[C@H](CC(=O)O)NC(=O)[C@H](CC(=O)O)NC1=O)NC(=O)[C@H](CC(C)(C)C)NC(=O)[C@H](CC(=O)O)NC2=O (stereo partly drawn) [I-790]    < 4.70

Exam item: Recorded pIC50 of CC(=O)N1CCC[C@]12CC=CCCCC1(CCCC=CCCCOC(=O)N3CC[C@@](C(=O)N[C@@H](Cc4ccccc4Cl)C(=O)N[C@@H](Cc4csc5ccccc45)C(=O)N[C@@H](CCC(N)=O)C(N)=O)(C3)NC(=O)[C@H]([C@@H](C)O)NC(=O)[C@H](Cc3ccccc3)NC(=O)[C@H](C)NC(=O)[C@H](C)NC(=O)[C@H](CC(=O)O)NC(=O)[C@H](CC(=O)O)NC1=O)NC(=O)[C@H](Cc1ccccc1)NC(=O)[C@H](CC(=O)O)NC2=O (stereo partly drawn) [I-1043] , please.
Marked response: < 4.70
